Biological target: IKZF2 (Homo sapiens, UniProt Q96SW2+Q9UKS7)
Sequence (Q9UKS7 whole entry): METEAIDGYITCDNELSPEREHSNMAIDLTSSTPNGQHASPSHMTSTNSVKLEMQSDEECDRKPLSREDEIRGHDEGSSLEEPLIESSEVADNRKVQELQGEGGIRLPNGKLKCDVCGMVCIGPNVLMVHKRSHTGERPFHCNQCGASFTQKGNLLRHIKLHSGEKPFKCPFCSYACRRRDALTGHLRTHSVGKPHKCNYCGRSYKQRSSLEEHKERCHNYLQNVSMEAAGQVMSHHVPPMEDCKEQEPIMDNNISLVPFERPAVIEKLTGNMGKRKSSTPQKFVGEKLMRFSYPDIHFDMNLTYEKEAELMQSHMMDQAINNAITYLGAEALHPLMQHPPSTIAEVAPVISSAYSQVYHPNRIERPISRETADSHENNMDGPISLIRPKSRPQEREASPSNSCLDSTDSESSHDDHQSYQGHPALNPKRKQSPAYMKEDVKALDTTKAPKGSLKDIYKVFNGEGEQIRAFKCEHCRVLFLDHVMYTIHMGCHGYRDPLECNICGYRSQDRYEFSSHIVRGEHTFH
Sequence (Q96SW2 whole entry): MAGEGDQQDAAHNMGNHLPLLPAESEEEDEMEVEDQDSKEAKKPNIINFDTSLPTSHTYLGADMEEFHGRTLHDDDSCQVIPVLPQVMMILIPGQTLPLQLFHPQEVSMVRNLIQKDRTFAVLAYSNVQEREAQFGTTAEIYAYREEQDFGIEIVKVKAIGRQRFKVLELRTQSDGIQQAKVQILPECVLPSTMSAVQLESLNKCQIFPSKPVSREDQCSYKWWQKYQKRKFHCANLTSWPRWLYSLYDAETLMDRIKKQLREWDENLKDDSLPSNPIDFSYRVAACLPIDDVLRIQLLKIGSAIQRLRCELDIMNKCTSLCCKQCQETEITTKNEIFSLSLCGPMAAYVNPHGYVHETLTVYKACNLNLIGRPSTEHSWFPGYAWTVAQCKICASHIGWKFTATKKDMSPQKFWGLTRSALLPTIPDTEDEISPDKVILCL
Sequence (Q16531 whole entry partner): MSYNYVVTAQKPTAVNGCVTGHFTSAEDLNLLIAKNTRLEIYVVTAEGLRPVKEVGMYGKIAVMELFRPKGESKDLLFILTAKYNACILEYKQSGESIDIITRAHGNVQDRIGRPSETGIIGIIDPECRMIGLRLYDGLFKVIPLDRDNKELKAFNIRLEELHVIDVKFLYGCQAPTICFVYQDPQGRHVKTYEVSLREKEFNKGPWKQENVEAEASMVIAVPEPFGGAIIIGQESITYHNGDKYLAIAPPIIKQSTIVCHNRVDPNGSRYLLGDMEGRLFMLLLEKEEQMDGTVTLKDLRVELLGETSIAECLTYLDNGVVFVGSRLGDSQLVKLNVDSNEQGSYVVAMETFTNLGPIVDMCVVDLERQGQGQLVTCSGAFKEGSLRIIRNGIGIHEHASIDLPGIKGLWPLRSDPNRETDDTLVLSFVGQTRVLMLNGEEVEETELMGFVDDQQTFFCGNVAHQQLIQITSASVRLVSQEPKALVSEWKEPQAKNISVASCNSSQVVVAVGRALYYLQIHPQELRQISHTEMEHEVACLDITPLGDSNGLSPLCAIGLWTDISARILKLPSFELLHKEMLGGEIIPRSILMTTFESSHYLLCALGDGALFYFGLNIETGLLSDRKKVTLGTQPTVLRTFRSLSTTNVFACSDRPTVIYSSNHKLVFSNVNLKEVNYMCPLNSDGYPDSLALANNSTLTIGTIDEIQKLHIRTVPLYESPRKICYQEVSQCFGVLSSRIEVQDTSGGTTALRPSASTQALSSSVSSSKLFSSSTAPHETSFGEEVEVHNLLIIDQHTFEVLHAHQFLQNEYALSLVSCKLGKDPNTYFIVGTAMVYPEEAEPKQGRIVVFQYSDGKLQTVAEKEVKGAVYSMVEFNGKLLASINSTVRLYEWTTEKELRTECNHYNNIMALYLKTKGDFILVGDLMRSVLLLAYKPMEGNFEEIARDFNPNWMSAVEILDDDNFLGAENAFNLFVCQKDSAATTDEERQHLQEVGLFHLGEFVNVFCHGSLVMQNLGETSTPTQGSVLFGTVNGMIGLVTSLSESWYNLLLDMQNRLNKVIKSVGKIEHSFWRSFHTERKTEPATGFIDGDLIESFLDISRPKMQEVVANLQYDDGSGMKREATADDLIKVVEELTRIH
Experiment: Human whole blood IKZF2 degradation (flow cytometry, CD4/CD25/Foxp3+ Treg cells)
Format: cell-based
Parameters: endogenous in cells
Conditions: 24 hrs incubation, IKZF2 MFI in CD4/CD25/Foxp3+ Treg cells, flow cytometry
readout.type: IKZF2 Dmax (%)

INSERT INTO results (compound, endpoint_result) VALUES
  ('CC(CC(C)(C)C)N[C@H]1CCCC[C@@H]1Cc1ccc2c(c1)CN(C1CCC(=O)NC1=O)C2=O (stereo partly drawn)', 101),
  ('CC1(C)CC(N[C@H]2CCCO[C@@H]2Cc2ccc3c(c2F)CN(C2CCC(=O)NC2=O)C3=O)CCO1 (stereo partly drawn)', 95),
  ('O=C1CCC(N2Cc3c(ccc(C[C@H]4CCCC[C@@H]4NC4CCOC4)c3F)C2=O)C(=O)N1 (stereo partly drawn)', 91),
  ('CC1(C)CC(N[C@H]2CCCC[C@@H]2Cc2ccc3c(c2)CN(C2CCC(=O)NC2=O)C3=O)CCO1 (stereo partly drawn)', 98),
  ('CC(N[C@H]1CCCC[C@@H]1Cc1ccc2c(c1F)CN(C1CCC(=O)NC1=O)C2=O)C1CCOCC1 (single isomer, unassigned)', 92),
  ('CC(N[C@H]1CCCC[C@@H]1Cc1ccc2c(c1)CN(C1CCC(=O)NC1=O)C2=O)C1CC(F)(F)C1 (single isomer, unassigned)', 99),
  ('COCC1CCC(N[C@H]2CCCC[C@@H]2Cc2ccc3c(c2)CN(C2CCC(=O)NC2=O)C3=O)CC1 (single isomer, unassigned)', 97),
  ('CC(N[C@H]1CCCC[C@@H]1Cc1ccc2c(c1)CN(C1CCC(=O)NC1=O)C2=O)C1CCC1 (stereo partly drawn) [Example 219]', 97),
  ('CC(N[C@H]1CCCC[C@@H]1Cc1ccc2c(c1)CN(C1CCC(=O)NC1=O)C2=O)C1CCC1 (stereo partly drawn) [Example 218]', 97);
